Ref: paper PMC11822212

system: VN-MCC cell lines (MCC13, MCC26, UISO); test: qHTS cell viability, VN-MCC cell lines as a group (mean AUC, VN.MCC.avg); format: cell-based, human; conditions: NPC library; mean AUC of VN-MCC cell lines
Structures can show the parent of a compound that is named as a salt.
Note to self: VN-MCC_Avg_AUC under 400 means satisfied, ties and anything higher get not satisfied.

Solved cases below.
CNCc1ccccc1.Cl [N-Methylbenzylamine hydrochloride] | not satisfied
N=C(N)NC(=O)c1nc(Cl)c(N)nc1N [Amiloride] | not satisfied
CC[C@@]1(O)C(=O)OCc2c1cc1n(c2=O)Cc2cc3c(CN(C)C)c(O)ccc3nc2-1 [Topotecan HCl] | satisfied
CCCCC1C(=O)N(c2ccccc2)N(c2ccc(O)cc2)C1=O (stereo not shown) | not satisfied
CNS(=O)(=O)CCc1ccc2[nH]cc(C3CCN(C)CC3)c2c1 [Naratriptan hydrochloride] | not satisfied

Shifting focus to the compound that follows.
Enquiry: Is VN-MCC_Avg_AUC of CCCC(C(=O)OCCN(CC)CC)(c1ccccc1)c1ccccc1 [Proadifen hydrochloride] strictly below 400?
Return: not satisfied

---

system: VP-MCC cell lines (WAGA, MKL-1, MKL-2); test: qHTS cell viability, VP-MCC cell lines as a group (mean AUC, VP.MCC.avg); assay type: cell-based, human
Where a name gives a salt, the structure may show the parent alone.
Give VP-MCC_Avg_AUC for every item shown.

Give me VP-MCC_Avg_AUC for each of these molecules, listed below.
1. CNC(C)Cc1ccc2c(c1)OCO2.Cl (centres unmarked)
2. C#CCN(C)[C@H](C)Cc1ccccc1 [Selegiline hydrochloride]
3. C=CCC1([C@H](C)CCC)C(=O)NC(=O)NC1=O [S-(-)-Secobarbital]
4. CCOc1cc(N2CCC(O)CC2)ccc1Nc1ncc2c(n1)N(C)c1ccccc1C(=O)N2C
5. COc1cc(C[C@@H](C)N)c(OC)cc1C.Cl

Return:
[435.364, 408.101, 434.931, 390.829, 79.8375]

---

system: WAGA cells (VP-MCC); test: qHTS cell viability (CellTiter-Glo, 72 h; primary and follow-up small molecule screen); format: cell-based, human
Please respond with reported WAGA_AUC for every item in the list.
Answers are plain numbers.

Worked examples, 2 molecules total:
CC(=O)OC1(c2ccccc2)CCN(CCc2ccccc2)CC1 | 388.929
COc1cc(NC(C)CCCN)c2ncccc2c1 (stereo not drawn) [Primaquine diphosphate] | 404.704

Query molecule follows.
Enquiry: Fill in reported WAGA_AUC for this entry: CC[C@H]1C[C@@H]2C[C@H]3c4[nH]c5ccc(OC)cc5c4CCN(C2)[C@@H]13.Cl [Ibogaine hydrochloride]
Return: 409.341

---

test system: VN-MCC cell lines (MCC13, MCC26, UISO); experiment: qHTS cell viability, VN-MCC cell lines as a group (mean AUC, VN.MCC.avg); assay type: cell-based, human; conditions: MIPE library, Control AUC minus VN-MCC AUC (therapeutic window), sheet S2E
Structures can show the parent of a compound that is named as a salt.
Rule: Control-VN-MCC of -9 or more gives Condition met; anything lower gives Condition not met.

C=C1C(=O)[C@]23[C@H](O)[C@H]1CC[C@H]2[C@@]12CO[C@]3(O)[C@@H](O)[C@@H]1C(C)(C)CC[C@@H]2O | Condition not met
O=c1cc(-c2ccc(O)cc2)oc2cc(O)cc(O)c12 | Condition not met
Cc1c(C)n(Cc2ccc(-c3ccccc3C(=O)O)cc2)c2ccc(C(=O)N[C@@H](C)c3ccc([N+](=O)[O-])cc3)cc12 | Condition met

Enquiry: Tell me whether Control-VN-MCC is at least -9 here: CC(=O)SCC(Cc1ccccc1)C(=O)NCC(=O)OCc1ccccc1 (centres unmarked)
Return: Condition met

Enquiry: Check this compound for Control-VN-MCC at or above -9: CC(C)(C)OC(=O)Nc1ccc(-c2cc(C(=O)NCCCCCCC(=O)NO)no2)cc1
Return: Condition not met

Enquiry: Textbook exercise: given the entry COc1cc(/C=C/C(=O)CC(=O)/C=C/c2ccc(O)c(OC)c2)ccc1O , state whether its Control-VN-MCC is greater than or equal to -9.
Return: Condition met

Enquiry: Could you please find out whether CC1=C(/C=C/C(C)=C/C=C/C(C)=C\C(=O)O)C(C)(C)CCC1 has Control-VN-MCC that meets -9 or exceeds it?
Return: Condition met

Enquiry: # bool: Control-VN-MCC of CN1CCCC(n2nc(Cc3ccc(Cl)cc3)c3ccccc3c2=O)CC1 (centres unmarked) [Azelastine hydrochloride] >= -9
Return: Condition met

Enquiry: Is Control-VN-MCC for CC1(C)CCC(c2ccc(Cl)cc2)=C(CN2CCN(c3ccc(C(=O)N[S+](=O)([O-])c4ccc(N[C@H](CCN5CCOCC5)CSc5ccccc5)c([S+](=O)([O-])C(F)(F)F)c4)cc3)CC2)C1 at or above -9?
Return: Condition not met

Enquiry: Determine whether measured Control-VN-MCC meets or exceeds -9 for Cc1[nH]c(/C=C2\C(=O)Nc3ccccc32)c(C)c1CCC(=O)O [Orantinib]
Return: Condition met

Enquiry: Does the reported Control-VN-MCC for C=Cc1c(C)c2cc3nc(cc4[nH]c(cc5nc(cc1[nH]2)C(C)=C5CCC(=O)O)c(CCC(=O)OC)c4C)[C@@]1(C)C3=CC=C(C(=O)OC)[C@H]1C(=O)OC fall at or above the -9 mark?
Return: Condition met

Enquiry: Could you tell me if the measured Control-VN-MCC of O=C(CCCCCCC(=O)Nc1cccnc1)NO [Pyroxamide] reaches -9 or more?
Return: Condition met

Enquiry: Identify whether the reported Control-VN-MCC of the following compound is -9 or greater: CCNC(=O)Nc1ccc2ncc(Nc3ccc(C)cc3)nc2n1
Return: Condition met
